B1: Adenylate kinase, P16304 (parent)
chain: MNLVLMGLPGAGKGTQGERIVEDYGIPHISTGDMFRAAMKEETPLGLEAKSYIDKGELVPDEVTIGIVKERLGKDDCERGFLLDGFPRTVAQAEALEEILEEYGKPIDYVINIEVDKDVLMERLTGRRICSVCGTTYHLVFNPPKTPGICDKDGGELYQRADDNEETVSKRLEVNMKQTQPLLDFYSEKGYLANVNGQQDIQDVYADVKDLLGGLKK

Variants of: B1
Details: Bacillus subtilis (strain 168); pH 7; Thermal; CD; KH2PO4 10mM; transition: 2; reversible: yes; structure 2EU8; whole UniProt chain shown
Hi there, I'd appreciate the recorded Tm for every entry that follows.
Give bare numbers, in °C.

{"columns": ["changes", "Tm / °C"],
 "data": [
  ["Q199R", 49.5],
  ["A193V", 48.9],
  ["Q199R G213E", 51.4],
  ["Q199R G214A", 49.1]
]}

Q. Please report the recorded Tm for G214R .
A. 49.8

Cited source: FireProtDB (doi:10.1016/j.bpj.2010.04.076)
